Biological target: T1, full-length human 14-3-3β protein with a N-terminal His6 tag (human, UniProt P31946 1-246)
T1 construct: 14-3-3 protein beta/alpha, human, full length; Treated as a dimer in the thermodynamic model (Pp = 14-3-3 dimer); also called Pp (14-3-3 dimer); source: E. coli BL21(DE3), pPROEX HTb, purified (Ni-NTA, dialysis)
T1 sequence (looked up): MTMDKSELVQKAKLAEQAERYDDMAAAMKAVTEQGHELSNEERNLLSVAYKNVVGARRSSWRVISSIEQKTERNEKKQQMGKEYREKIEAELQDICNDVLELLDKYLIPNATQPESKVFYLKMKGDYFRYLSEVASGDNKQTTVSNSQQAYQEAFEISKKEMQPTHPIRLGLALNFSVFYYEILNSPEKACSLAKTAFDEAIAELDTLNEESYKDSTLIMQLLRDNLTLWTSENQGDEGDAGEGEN
Experiment: fluorescence polarisation; 2D fluorescence anisotropy titration, replicate 2: 14-3-3β titrated (from 250 µM) to FITC-labeled macrocycle or pepD with varying ChREBP peptide starting at 10 μM; KD I (binary affinity of the macrocycle for a site of the 14-3-3 dimer) fitted by the thermodynamic cooperativity model with KD II fixed at 1.5 µM; 10 mM HEPES pH 7.4, 150 mM NaCl, 0.1% Tween20, 0.1% BSA; room temperature
Details: both partners purified
Where no end group is shown, it is not given here. [ ]: non-standard residue; d: D form. Phe(4-NO2) = N[C@@H](Cc1ccc([N+](=O)[O-])cc1)C(=O)O; pS = N[C@@H](COP(=O)(O)O)C(=O)O; β3hS = N[C@@H](CO)CC(=O)O; βAla = NCCC(=O)O
Measured pKd values are reported for all entries that follow.
Lab note — pKd values are minus log10 of concentrations in M.

binder: SFSXFKXK (not fully specified; phosphoserine; Phe(+1) triazole cyclised to the backbone amide nitrogen of Lys(+5) through a linker x = 2 (from 3-butyn-1-ol); β-homoSer(+2); β-Ala(+3); Nph(+4); β-Ala and a lysine whose side chain carries fluorescein isothiocyanate (FITC) after Lys(+5)) [fluorescently labeled macrocycle F2]
recorded-metric: pKd
measured-result: 4.92
--
binder: [pS][Phe(4-NO2)][β3hS][βAla][Phe(4-NO2)]K (also: FITC label, site not given here) [FITC-labeled pepD]
recorded-metric: pKd
measured-result: 5.12
--
binder: SFSXFKXK (not fully specified; phosphoserine; Phe(+1) triazole cyclised to the backbone amide nitrogen of Lys(+5) through a linker x = 1 (from propargyl alcohol); β-homoSer(+2); β-Ala(+3); Nph(+4); β-Ala and a lysine whose side chain carries fluorescein isothiocyanate (FITC) after Lys(+5)) [fluorescently labeled macrocycle F1]
recorded-metric: pKd
measured-result: 4.14

## Task Look up pKd for this binder: SFSXFKXK (not fully specified; phosphoserine; Phe(+1) triazole cyclised to the backbone amide nitrogen of Lys(+5) through a linker x = 3 (from 4-pentyn-1-ol); β-homoSer(+2); β-Ala(+3); Nph(+4); β-Ala and a lysine whose side chain carries fluorescein isothiocyanate (FITC) after Lys(+5)) [fluorescently labeled macrocycle F3]
## Result 6.42
